Cited source for all entries: patent US11447502B2

System: M. avium ATCC 25291
Experiment summary: Microplate Alamar Blue MIC assay, M. avium
Assay type: cell-based, Mycobacterium avium
Value type: antibacterial activity M. avium ATCC 25291

CO[C@H]1/C=C/O[C@@]2(C)Oc3c(C)c(O)c4c(O)c(c(/C=N/N5CCN(c6ccc(F)cc6NC(=O)C(Cc6ccccc6)NC(=O)c6ccccc6F)CC5)c(O)c4c3C2=O)NC(=O)/C(C)=C\C=C\[C@H](C)[C@H](O)[C@@H](C)[C@@H](O)[C@@H](C)[C@H](OC(C)=O)[C@@H]1C (some centres unmarked) [IX-398, Rifamycin SV—(CHN)—IX-214 Conjugate]	0.098
CO[C@H]1/C=C/O[C@@]2(C)Oc3c(C)c(O)c4c(O)c(c(/C=N/N5CCN(CCN6CCN(c7ccc(F)cc7NC(=O)C(Cc7ccccc7)NC(=O)c7ccccc7F)CC6)CC5)c(O)c4c3C2=O)NC(=O)/C(C)=C\C=C\[C@H](C)[C@H](O)[C@@H](C)[C@@H](O)[C@@H](C)[C@H](OC(C)=O)[C@@H]1C (some centres unmarked) [IX-403, Rifamycin SV—(CHN)—IX-402 Conjugate]	3.13
[2H]C([2H])(c1ccccc1)C(NC(=O)c1ccccc1F)C(=O)Nc1cc(F)ccc1N1CCN(/N=C/c2c3c(O)c4c(O)c(C)c5c(c4c2O)C(=O)[C@@](C)(O/C=C/[C@H](OC)[C@@H](C)[C@@H](OC(C)=O)[C@H](C)[C@H](O)[C@H](C)[C@@H](O)[C@@H](C)/C=C/C=C(/C)C(=O)N3)O5)CC1 (some centres unmarked) [IX-404a, Rifamycin SV—(CHN)—IX-370a Conjugate]	0.048
[2H]C([2H])(c1ccccc1)C(NC(=O)c1ccccc1F)C(=O)Nc1cc(F)ccc1N1CCN(C(=O)COc2cc3c(O)c4c(O)c(C)c5c(c24)C(=O)[C@@](C)(O/C=C/[C@H](OC)[C@@H](C)[C@@H](OC(C)=O)[C@H](C)[C@H](O)[C@H](C)[C@@H](O)[C@@H](C)/C=C/C=C(/C)C(=O)N3)O5)CC1 (some centres unmarked) [IX-408a, Rifamycin B—IX-370a Conjugate]	0.78
CO[C@H]1/C=C/O[C@@]2(C)Oc3c(C)c(O)c4c(O)c(c(/C=N/N5CCN(C)CC5)c(O)c4c3C2=O)NC(=O)/C(C)=C\C=C\[C@H](C)[C@H](O)[C@@H](C)[C@@H](O)[C@@H](C)[C@H](OC(C)=O)[C@@H]1C [rifampin, reference compound]	0.024
